Where these numbers come from: paper PMC8400955

# measurement_description: Bidirectional permeability across Caco-2 cell monolayers
# Format: in vitro ADME
# run_parameters: human, Caco-2, Caco-2, 15 μM; read-out: Recovery A to B
readout_label: recovery at 120 min, 15 μM (%)
Numbers only, in %.

In: Which recovery at 120 min, 15 μM value belongs to C[C@]12CC[C@@H]3c4ccc(B(O)O)cc4C[C@@H](CCCCCCCCC[S+]([O-])CCCC(F)(F)C(F)(F)F)[C@H]3[C@@H]1CC[C@@H]2O (stereo partly shown) ?
Out: 75.7

* * *

# measured_target: CYP3A5 (Homo sapiens, UniProt P20815)
# Sequence (P20815 whole entry): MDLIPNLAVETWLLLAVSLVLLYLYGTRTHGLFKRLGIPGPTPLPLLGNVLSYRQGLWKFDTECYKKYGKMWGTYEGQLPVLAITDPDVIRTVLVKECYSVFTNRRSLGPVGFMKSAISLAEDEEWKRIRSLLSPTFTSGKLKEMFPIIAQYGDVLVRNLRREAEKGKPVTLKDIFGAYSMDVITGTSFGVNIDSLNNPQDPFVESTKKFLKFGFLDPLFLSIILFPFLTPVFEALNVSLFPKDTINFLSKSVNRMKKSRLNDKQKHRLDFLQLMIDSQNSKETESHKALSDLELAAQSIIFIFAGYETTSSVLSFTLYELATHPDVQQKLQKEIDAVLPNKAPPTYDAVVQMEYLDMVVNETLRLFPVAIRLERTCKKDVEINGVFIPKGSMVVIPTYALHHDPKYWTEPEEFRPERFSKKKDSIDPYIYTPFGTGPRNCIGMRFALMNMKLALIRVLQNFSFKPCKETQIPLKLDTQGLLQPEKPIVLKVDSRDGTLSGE
# measurement_description: CYP phenotyping, recombinant CYP3A5
# run_parameters: human
readout_label: half-life at 2 µM (min)
One number for each entry, in min.

In: Which half-life at 2 µM value belongs to C[C@]12CC[C@@H]3c4ccc(B(O)O)cc4C[C@@H](CCCCCCCCC[S+]([O-])CCCC(F)(F)C(F)(F)F)[C@H]3[C@@H]1CC[C@@H]2O (stereo partly shown) ?
Out: 2.06
